Values compiled from patent US10533015B1.

conditions: Sesame oil; heating temp. 40 °C, obs. temp. 40 °C
Measured Approximate Solubility (mg/mL) in Excipient: Sesame oil, listed per entry.
reported_endpoint: Approximate Solubility (mg/mL) in Excipient: Sesame oil

| compound_smiles | val |
| --- | --- |
| C=C1CC[C@@]2(O)C3Cc4ccc(OC(=O)CCCCCCC/C=C\CCCCCCCC)c5c4[C@@]2(CCN3CC2CC2)[C@H]1O5 | >411.6 mg/mL |
| C=C1CC[C@@]2(O)C3Cc4ccc(OC(=O)CCCCCCC/C=C/CCCCCCCC)c5c4[C@@]2(CCN3CC2CC2)[C@H]1O5 | <52 mg/mL |
| C=C1CC[C@@]2(O)C3Cc4ccc(OC(=O)OCCCCCCCCCC)c5c4[C@@]2(CCN3CC2CC2)[C@H]1O5 | >403 mg/mL |
| CCCCCCCCCCCCOC(=O)Oc1ccc2c3c1O[C@H]1C(=O)CC[C@@]4(O)C(C2)N(CC2CC2)CC[C@]314 | >407 mg/mL |
| C=C1CC[C@@]2(O)C3Cc4ccc(OC(=O)CCCCCCC/C=C\C/C=C\C/C=C\CC)c5c4[C@@]2(CCN3CC2CC2)[C@H]1O5 | >406 mg/mL |
| C=C1CC[C@@]2(O)C3Cc4ccc(OC(=O)OCCCCCCCCCCCC)c5c4[C@@]2(CCN3CC2CC2)[C@H]1O5 | >402.8 mg/mL |

* * *

test: physchem; conditions: 40 °C, water, thermodynamic from solid

| compound | solubility thermodynamic |
| --- | --- |
| C=C1CC[C@@]2(O)C3Cc4ccc(OC(=O)CCCCCCCCCCC)c5c4[C@@]2(CCN3CC2CC2)[C@H]1O5 [Compound 59, reference compound] | < 1 µg/mL |

* * *

conditions: Cottonseed oil; heating temp. 40 °C, obs. temp. 40 °C
Measured Approximate Solubility (mg/mL) in Excipient: Cottonseed oil, listed per entry.
reported_endpoint: Approximate Solubility (mg/mL) in Excipient: Cottonseed oil

| compound_smiles | val |
| --- | --- |
| C=C1CC[C@@]2(O)C3Cc4ccc(OC(=O)CCCCCCCCCCCCCCCCC)c5c4[C@@]2(CCN3CC2CC2)[C@H]1O5 | 100 to 120 mg/mL |
| C=C1CC[C@@]2(O)C3Cc4ccc(OC(=O)CCCCCCC/C=C\C/C=C\C/C=C\CC)c5c4[C@@]2(CCN3CC2CC2)[C@H]1O5 | >414 mg/mL |
| C=C1CC[C@@]2(O)C3Cc4ccc(OC(=O)CCCCCCCCCCC/C=C\CCCCCCCC)c5c4[C@@]2(CCN3CC2CC2)[C@H]1O5 | >381 mg/mL |
| CCCCCCCCCCCCOC(=O)Oc1ccc2c3c1O[C@H]1C(=O)CC[C@@]4(O)C(C2)N(CC2CC2)CC[C@]314 | >407 mg/mL |
| CCCCCCCC/C=C\CCCCCCCC(=O)Oc1ccc2c3c1O[C@H]1C(=O)CC[C@@]4(O)C(C2)N(CC2CC2)CC[C@]314 | >407 mg/mL |
| C=C1CC[C@@]2(O)C3Cc4ccc(OC(=O)OCCCCCCCCCC)c5c4[C@@]2(CCN3CC2CC2)[C@H]1O5 | >403 mg/mL |

* * *

assay: Liver S9 fraction stability, dog; assay type: in vitro ADME; conditions: dog liver S9, 1.0 mg/ml S9 protein, 2 μM, 37° C.

| compound | % remaining at 60 minutes / % |
| --- | --- |
| CCCCCCCCCCCC(=O)OCN1C(=O)CCc2ccc(OCCCCN3CCN(c4cccc(Cl)c4Cl)CC3)cc21 [Aripiprazole Lauroxil, reference compound] | 66.1 |
| C=C1CC[C@@]2(O)C3Cc4ccc(OC(=O)OCCCCCCCCCCCC)c5c4[C@@]2(CCN3CC2CC2)[C@H]1O5 | 17.1 |
| C=C1CC[C@@]2(O)C3Cc4ccc(OCOC(=O)OCCCCCCCCCCCC)c5c4[C@@]2(CCN3CC2CC2)[C@H]1O5 | 3.6 |
| CCCCCCCCCCCCCCCC(=O)OC1CCCn2c1nc(C)c(CCN1CCC(c3noc4cc(F)ccc34)CC1)c2=O (centres unmarked) [Paliperidone palmitate, reference compound] | 56.4 |
| C=C1CC[C@@]2(O)C3Cc4ccc(OC(=O)CCCCCCC/C=C/CCCCCCCC)c5c4[C@@]2(CCN3CC2CC2)[C@H]1O5 | 80.9 |
